- target: ERα (Homo sapiens, UniProt P03372)
- Sequence (P03372 whole entry): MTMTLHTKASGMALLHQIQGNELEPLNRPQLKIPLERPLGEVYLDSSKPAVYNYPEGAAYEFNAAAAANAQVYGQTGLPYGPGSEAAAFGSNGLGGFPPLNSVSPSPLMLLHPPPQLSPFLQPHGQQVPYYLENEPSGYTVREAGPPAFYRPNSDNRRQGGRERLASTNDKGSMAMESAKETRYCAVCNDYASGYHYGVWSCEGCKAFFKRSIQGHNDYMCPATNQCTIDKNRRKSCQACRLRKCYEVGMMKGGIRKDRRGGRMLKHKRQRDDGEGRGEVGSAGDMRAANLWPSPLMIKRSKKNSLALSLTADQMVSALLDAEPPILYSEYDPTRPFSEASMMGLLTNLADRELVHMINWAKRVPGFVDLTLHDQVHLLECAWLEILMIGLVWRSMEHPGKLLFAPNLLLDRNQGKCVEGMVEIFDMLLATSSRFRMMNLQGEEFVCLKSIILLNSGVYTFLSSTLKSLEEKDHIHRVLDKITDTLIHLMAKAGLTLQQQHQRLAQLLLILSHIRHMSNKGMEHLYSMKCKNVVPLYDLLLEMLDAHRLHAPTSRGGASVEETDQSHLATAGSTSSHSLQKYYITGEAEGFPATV
- assay-details: Estrogen receptor-binding assay, competition with [3H]-17β-estradiol
- Set-up: expressed in transfected cells; host or cells: Cos-7
- condition-info: extracts of cos-7 cells expressing human ERα; 2 nM [3H]-E2; tocols 1 μM to 1 mM; N.M. = not measurable
Listed here: items and their measured IC50.
parameter-measured: IC50 (µM)

>>> test_result("CC(C)=CCC/C(C)=C/CC/C(C)=C/CC[C@]1(C)CCc2cc(O)cc(C)c2O1 [δ-TT, δ-tocotrienol]")
96
>>> test_result("Cc1cc(O)cc2c1OC(C)(CCCC(C)CCCC(C)CCCC(C)C)CC2 (stereo not shown) [δ-TP, δ-tocopherol]")
118
>>> test_result("Cc1c(C)c2c(c(C)c1O)CC[C@@](C)(CCC[C@H](C)CCC[C@H](C)CCCC(C)C)O2 [α-TP, α-tocopherol]")
453
>>> test_result("CC(C)=CCC/C(C)=C/CC/C(C)=C/CC[C@]1(C)CCc2cc(O)c(C)c(C)c2O1 [γ-TT, γ-tocotrienol]")
203

Origin of the recorded values: paper PMC4700278
